Test system: DU-145
Test: Cytotoxicity against human DU145 cells
Assay type: functional
Quantity Name: GI50 (nM)
Write the number in nM without appending the unit.

*Q* // lookup GI50 for `COc1ccc2c(c1)C(=O)c1c-2n(CCCCl)c(=O)c2cc(OC)c(OC)cc12`
*A* 4070

*Q* // lookup GI50 for `[N-]=[N+]=NCCCn1c2c(c3ccc([N+](=O)[O-])cc3c1=O)C(=O)c1cc(I)ccc1-2`
*A* 1780

*Q* // lookup GI50 for `CCOc1ccc2c(c1)C(=O)c1c-2n(CCCN=[N+]=[N-])c(=O)c2cc([N+](=O)[O-])ccc12`
*A* 3890

*Q* // lookup GI50 for `COc1ccc2c(c1)C(=O)c1c-2n(CCCCl)c(=O)c2cc([N+](=O)[O-])ccc12`
*A* 36

*Q* // lookup GI50 for `CSc1ccc2c(c1)C(=O)c1c-2n(CCCBr)c(=O)c2cc([N+](=O)[O-])ccc12`
*A* 3890

====

Test system: SF-539
Assay: Cytotoxicity against human SF539 cells
Format: functional
Provide the recorded GI50 for the entries that follow.
Write the number in µM without appending the unit.

*Q* // lookup GI50 for `COc1cc2c3c(n(CCCN=[N+]=[N-])c(=O)c2cc1OC)-c1ccc([N+](=O)[O-])cc1C3=O`
*A* 38.9

*Q* // lookup GI50 for `COc1cc2c3c(n(CCCN)c(=O)c2cc1OC)-c1ccc(N(C)C)cc1C3=O`
*A* 1.9

*Q* // lookup GI50 for `COc1cc2c3c(n(CCCN)c(=O)c2cc1OC)-c1ccc([N+](=O)[O-])cc1C3=O`
*A* 3.72

*Q* // lookup GI50 for `COc1ccc2c(c1)C(=O)c1c-2n(CCCN=[N+]=[N-])c(=O)c2cc(OC)c(OC)cc12`
*A* 56.2

====

System: SF-539
Test: Cytotoxicity against human SF539 cells
Assay type: functional
Provide the recorded log10(GI50) for the entries that follow.
A value of 2 here means GI50 of 100 in nM, since values are log10.

*Q* // lookup log10(GI50) for `N#Cc1ccc2c(c1)C(=O)c1c-2n(CCCCl)c(=O)c2cc([N+](=O)[O-])ccc12`
*A* 3.42

*Q* // lookup log10(GI50) for `COc1ccc2c(c1)C(=O)c1c-2n(CCCN)c(=O)c2cc(OC)c(OC)cc12`
*A* 2.06

*Q* // lookup log10(GI50) for `COc1cc2c3c(n(CCCBr)c(=O)c2cc1OC)-c1ccc(F)cc1C3=O`
*A* 3.55

*Q* // lookup log10(GI50) for `COc1cc2c3c(n(CCCN=[N+]=[N-])c(=O)c2cc1OC)-c1ccccc1C3=O`
*A* 3.67

*Q* // lookup log10(GI50) for `COc1cc2c3c(n(CCCCl)c(=O)c2cc1OC)-c1ccccc1C3=O`
*A* 4.15

*Q* // lookup log10(GI50) for `[N-]=[N+]=NCCCn1c2c(c3ccc([N+](=O)[O-])cc3c1=O)C(=O)c1cc(I)ccc1-2`
*A* 3.35

*Q* // lookup log10(GI50) for `COC(=O)OCc1ccc2c(c1)C(=O)c1c-2n(CCCBr)c(=O)c2cc([N+](=O)[O-])ccc12`
*A* 4.75

*Q* // lookup log10(GI50) for `CCc1ccc2c(c1)C(=O)c1c-2n(CCCN)c(=O)c2cc([N+](=O)[O-])ccc12`
*A* 3.20

*Q* // lookup log10(GI50) for `COc1cc2c3c(n(CCCN)c(=O)c2cc1OC)-c1ccccc1C3=O`
*A* 3.45

*Q* // lookup log10(GI50) for `COc1cc2c3c(n(CCCN)c(=O)c2cc1OC)-c1ccc(N)cc1C3=O`
*A* 2.50

*Q* // lookup log10(GI50) for `CCc1ccc2c(c1)C(=O)c1c-2n(CCCN)c(=O)c2cc(OC)c(OC)cc12`
*A* 3.21

*Q* // lookup log10(GI50) for `COc1cc2c3c(n(CCCN=[N+]=[N-])c(=O)c2cc1OC)-c1ccc(N)cc1C3=O`
*A* 1.70

*Q* // lookup log10(GI50) for `CS(=O)(=O)c1ccc2c(c1)C(=O)c1c-2n(CCCBr)c(=O)c2cc([N+](=O)[O-])ccc12`
*A* 4.38

*Q* // lookup log10(GI50) for `O=C1c2cc(Br)ccc2-c2c1c1ccc([N+](=O)[O-])cc1c(=O)n2CCCCl`
*A* 2.82
